Biological target: serotonin transporter (Rattus norvegicus)
Construct: evaluated using rat platelets expressing serotonin transporters
Sequence (P31652 whole entry): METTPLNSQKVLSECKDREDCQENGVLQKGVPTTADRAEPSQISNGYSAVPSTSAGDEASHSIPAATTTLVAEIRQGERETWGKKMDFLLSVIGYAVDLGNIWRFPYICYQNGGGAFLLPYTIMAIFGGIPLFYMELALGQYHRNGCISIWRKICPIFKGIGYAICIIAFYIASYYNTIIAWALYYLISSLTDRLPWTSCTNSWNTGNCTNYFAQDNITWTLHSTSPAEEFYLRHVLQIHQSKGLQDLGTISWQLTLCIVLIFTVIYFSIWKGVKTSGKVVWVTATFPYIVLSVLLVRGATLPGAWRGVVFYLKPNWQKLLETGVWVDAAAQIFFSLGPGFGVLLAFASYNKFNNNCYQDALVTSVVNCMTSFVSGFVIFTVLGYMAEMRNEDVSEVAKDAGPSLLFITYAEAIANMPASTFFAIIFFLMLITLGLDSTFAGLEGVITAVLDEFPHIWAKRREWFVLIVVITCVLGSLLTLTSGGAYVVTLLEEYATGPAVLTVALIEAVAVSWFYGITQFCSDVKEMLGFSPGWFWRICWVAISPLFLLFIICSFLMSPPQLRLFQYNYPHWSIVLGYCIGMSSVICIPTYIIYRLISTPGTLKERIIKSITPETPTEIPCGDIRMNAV
Experiment: Inhibitory action on serotonin transporter (fluorescent substrate uptake in rat platelets)

{"smiles entry": "Fc1ccc([C@@H]2CCNC[C@H]2COc2ccc3c(c2)COC3)cc1", "IC50 / nM": 2.4}

###

Biological target: CYP2D6 (Homo sapiens, UniProt P10635)
Sequence (P10635 whole entry): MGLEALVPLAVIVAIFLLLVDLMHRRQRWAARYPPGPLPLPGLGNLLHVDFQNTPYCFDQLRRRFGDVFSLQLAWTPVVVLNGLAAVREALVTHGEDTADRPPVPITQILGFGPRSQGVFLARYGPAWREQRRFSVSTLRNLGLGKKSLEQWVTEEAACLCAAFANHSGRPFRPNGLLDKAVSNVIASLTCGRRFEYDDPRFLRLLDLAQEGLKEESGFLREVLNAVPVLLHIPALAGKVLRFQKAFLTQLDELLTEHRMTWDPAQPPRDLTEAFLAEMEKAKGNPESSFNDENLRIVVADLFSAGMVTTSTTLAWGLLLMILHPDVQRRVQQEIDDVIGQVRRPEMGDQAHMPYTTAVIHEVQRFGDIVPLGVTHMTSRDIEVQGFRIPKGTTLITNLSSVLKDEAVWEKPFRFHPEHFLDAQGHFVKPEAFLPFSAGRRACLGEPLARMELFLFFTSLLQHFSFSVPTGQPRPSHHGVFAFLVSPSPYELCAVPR
pIC50: −log10 of the molar value.

{"compound": "Fc1ccc([C@@H]2CCNC[C@H]2COc2ccc3c(c2)COC3)cc1 [Example 1]", "test target": "CYP2D6 (Homo sapiens, UniProt P10635)", "pIC50": "< 5.00"}

###

Target: CYP1A2 (Homo sapiens)
Sequence (P05177 1-516): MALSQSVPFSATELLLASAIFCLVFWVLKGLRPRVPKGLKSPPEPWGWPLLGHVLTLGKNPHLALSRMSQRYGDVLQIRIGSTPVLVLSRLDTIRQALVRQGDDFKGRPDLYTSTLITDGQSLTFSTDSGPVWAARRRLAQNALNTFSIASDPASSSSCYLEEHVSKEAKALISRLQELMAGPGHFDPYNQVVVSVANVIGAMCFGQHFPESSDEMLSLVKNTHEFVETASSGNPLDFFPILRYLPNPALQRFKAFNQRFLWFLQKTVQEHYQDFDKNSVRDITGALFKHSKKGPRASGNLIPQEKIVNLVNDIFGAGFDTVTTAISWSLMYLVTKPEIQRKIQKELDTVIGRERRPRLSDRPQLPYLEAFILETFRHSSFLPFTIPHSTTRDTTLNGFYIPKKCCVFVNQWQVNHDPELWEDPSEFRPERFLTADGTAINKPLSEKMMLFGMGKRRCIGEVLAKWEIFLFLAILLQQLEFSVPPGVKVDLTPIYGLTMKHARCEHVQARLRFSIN
# IC50 per entry

{"compound": "Fc1ccc([C@@H]2CCNC[C@H]2COc2ccc3c(c2)OCO3)cc1 [Paroxetine, reference compound]", "IC50": "> 10 µM"}
{"compound": "Fc1ccc([C@@H]2CCNC[C@H]2COc2ccc3c(c2)COC3)cc1 [Example 1]", "IC50": "> 10 µM"}
